Listing: MFI of selected binders
Target: T1, human LILRA4 (human, UniProt P59901 24-499)
T1 construct: whole, on cells; also called hLILRA4
T1 sequence (P59901 24-499): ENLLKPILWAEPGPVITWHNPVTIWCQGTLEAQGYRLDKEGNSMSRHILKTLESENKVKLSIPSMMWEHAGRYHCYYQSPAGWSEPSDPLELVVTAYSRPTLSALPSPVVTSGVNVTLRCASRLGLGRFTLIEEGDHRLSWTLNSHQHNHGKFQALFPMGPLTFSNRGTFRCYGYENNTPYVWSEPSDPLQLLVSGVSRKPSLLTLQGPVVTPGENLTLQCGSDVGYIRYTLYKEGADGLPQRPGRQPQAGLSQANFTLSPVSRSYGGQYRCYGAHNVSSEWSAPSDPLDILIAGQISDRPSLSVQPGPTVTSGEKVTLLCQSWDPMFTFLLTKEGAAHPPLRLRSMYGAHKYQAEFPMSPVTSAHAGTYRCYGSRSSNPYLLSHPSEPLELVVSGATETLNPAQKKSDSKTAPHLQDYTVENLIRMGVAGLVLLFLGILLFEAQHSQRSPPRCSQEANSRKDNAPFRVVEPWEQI
Experiment: FACS, 293F-hLILRA4 cells
MEASURE: MFI (MFI)

binder="2-H1-D7-E5-D5 (antibody, V domains shown, mouse monoclonal hybridoma antibody) VH: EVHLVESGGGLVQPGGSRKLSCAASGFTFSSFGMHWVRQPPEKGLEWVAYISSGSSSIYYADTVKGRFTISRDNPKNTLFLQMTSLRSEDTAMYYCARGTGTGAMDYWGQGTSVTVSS VL: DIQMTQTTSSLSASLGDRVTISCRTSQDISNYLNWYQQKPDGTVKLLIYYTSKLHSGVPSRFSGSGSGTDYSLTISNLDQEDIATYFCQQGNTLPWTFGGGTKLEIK" obs_value=23.7
binder="27-F11-E10-G10 (antibody, V domains shown, mouse monoclonal hybridoma antibody) VH: EVQLVESGGGLVQPGGSRKLSCAASGFTFSSFGMHWVRQAPEKGLEWVAYISSGSSTIYYADTVKGRFSISRDNPKNTLFLQMTSLRSEDTAMFYCARSTGTGAMDYWGQGTSVTVSS VL: DIQMTQTTSSLSASLGDRVTISCRASQDISNYLNWYQQKPDGTVKLLIYYTSRLHSGVPSRFSGSGSGTDYSLTISNLEQEDIATYFCQQGNTLPWTFGGGTKLELK" obs_value=19.7
binder="36-F4-H1-D9 (antibody, V domains shown, mouse monoclonal hybridoma antibody) VH: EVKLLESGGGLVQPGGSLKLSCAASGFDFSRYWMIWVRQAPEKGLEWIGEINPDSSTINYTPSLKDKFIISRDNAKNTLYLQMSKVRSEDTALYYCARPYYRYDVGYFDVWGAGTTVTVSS VL: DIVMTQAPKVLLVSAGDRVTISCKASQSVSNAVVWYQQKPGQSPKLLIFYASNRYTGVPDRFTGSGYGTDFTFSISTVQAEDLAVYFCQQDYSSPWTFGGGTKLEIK" obs_value=20.7
binder="42-C8-A12-F3-D11 (antibody, V domains shown, mouse monoclonal hybridoma antibody) VH: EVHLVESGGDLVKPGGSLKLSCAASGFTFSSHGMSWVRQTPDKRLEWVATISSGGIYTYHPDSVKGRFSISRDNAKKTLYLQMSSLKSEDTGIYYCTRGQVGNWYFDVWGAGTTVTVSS VL: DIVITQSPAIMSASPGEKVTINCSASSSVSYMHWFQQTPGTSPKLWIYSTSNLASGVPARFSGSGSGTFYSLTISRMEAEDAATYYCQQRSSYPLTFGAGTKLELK" obs_value=27.2
binder="2-H8-C9-F7-E2 (antibody, V domains shown, mouse monoclonal hybridoma antibody) VH: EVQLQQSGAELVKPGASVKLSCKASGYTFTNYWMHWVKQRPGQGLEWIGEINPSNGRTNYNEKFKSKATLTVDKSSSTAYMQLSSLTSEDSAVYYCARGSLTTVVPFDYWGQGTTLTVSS VL: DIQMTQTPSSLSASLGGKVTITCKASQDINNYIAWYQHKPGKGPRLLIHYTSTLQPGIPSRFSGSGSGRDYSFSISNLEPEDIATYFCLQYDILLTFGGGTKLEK" obs_value=23
